- ASSAY_TARGET: T1, human CD3 on CD3-expressing cells (Jurkat, human T cells) (human, UniProt P07766 23-207; P04234 22-171)
- T1 construct: On cells CD3 stands within the T cell receptor complex (also gamma and zeta chains); also called human CD3 expressing Jurkat cells
- T1 sequence (P07766 23-207 limits assumed, chain 1 of 2): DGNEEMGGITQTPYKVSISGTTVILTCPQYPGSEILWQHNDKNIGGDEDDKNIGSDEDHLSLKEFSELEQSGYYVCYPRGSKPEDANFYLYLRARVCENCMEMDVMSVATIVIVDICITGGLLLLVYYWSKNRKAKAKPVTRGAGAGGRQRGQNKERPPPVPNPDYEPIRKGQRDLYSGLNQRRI
- T1 sequence (P04234 22-171 limits assumed, chain 2 of 2): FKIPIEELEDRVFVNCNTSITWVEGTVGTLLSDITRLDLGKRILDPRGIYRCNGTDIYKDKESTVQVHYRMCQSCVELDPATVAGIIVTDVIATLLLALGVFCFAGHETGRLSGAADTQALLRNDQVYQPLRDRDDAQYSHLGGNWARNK
- PROCEDURE_SUMMARY: FACS on Jurkat cells
pEC50: −log10 of the molar value.
Use Yes when the recorded pEC50 is no lower than 7; use No when it is lower.

BINDER | CLASS_LABEL
BSPSMA/CD3-800 (bispecific antibody, IgG4, V domains shown, modified (chimeric) IgG4 Fc domain; also called PSMA-VH-11810 x CD3-VH-G8) VH 1: QVQLVESGGGVVQPGRSLRLSCAASGFTFSSYGMHWVRQAPGKGLEWVAVISYAGNNKYYADSVKGRFTVSRDNSKKTLYLQMNSLRSEDTAVYYCAKDSYYDFLTDPDVLDIWGQGTMVTVSS VH 2: EVQLVESGGGLVQPGRSLRLSCAASGFTFDDYSMHWVRQAPGKGLEWVSGISWNSGSIGYADSVKGRFTISRDNAKNSLYLQMNSLRAEDTALYYCAKYGSGYGKFYHYGLDVWGQGTTVTVSS VL: DIQMTQSPSSLSASVGDSVTITCRASQSINNYLNWYQQKPGKAPKLLIYTASSLLSGVPSRFSGSGSGTDFTLTISGLHPEDFATYFCQQSFSTPPITFGQGTRLDIK | Yes
BSPSMA/CD3-1200 (bispecific antibody, IgG4, V domains shown, modified (chimeric) IgG4 Fc domain; also called PSMA-VH-11810 x CD3-VH-G12) VH 1: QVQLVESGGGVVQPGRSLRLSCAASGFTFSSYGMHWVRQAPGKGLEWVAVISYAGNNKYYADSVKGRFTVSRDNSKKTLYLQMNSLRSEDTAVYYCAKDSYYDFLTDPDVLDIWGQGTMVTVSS VH 2: EVQLVESGGGLVQPGRSLRLSCAASGFTFDDYSMHWVRQAPGKGLEWVSGISWNSGSIGYADSVKGRFTISRDNAKNSLYLQMNSLRAEDTALYYCAKDGSGYGKFYHYGLDVWGQGTTVTVSS VL: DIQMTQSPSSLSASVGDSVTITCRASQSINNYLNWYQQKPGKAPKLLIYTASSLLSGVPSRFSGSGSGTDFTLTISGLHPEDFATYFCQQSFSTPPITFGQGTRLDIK | Yes
BSPSMA/CD3-1000 (bispecific antibody, IgG4, V domains shown, modified (chimeric) IgG4 Fc domain; also called PSMA-VH-11810 x CD3-VH-G10) VH 1: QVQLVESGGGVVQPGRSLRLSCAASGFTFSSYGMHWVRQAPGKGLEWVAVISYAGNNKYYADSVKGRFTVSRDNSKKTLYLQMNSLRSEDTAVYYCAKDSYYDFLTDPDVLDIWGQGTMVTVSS VH 2: EVQLVESGGGLVQPGRSLRLSCAASGFTFDDYSMHWVRQAPGKGLEWVSGISWNSGSKGYADSVKGRFTISRDNAKNSLYLQMNSLRAEDTALYYCAKYGSGYGKFYYYGLDVWGQGTTVTVSS VL: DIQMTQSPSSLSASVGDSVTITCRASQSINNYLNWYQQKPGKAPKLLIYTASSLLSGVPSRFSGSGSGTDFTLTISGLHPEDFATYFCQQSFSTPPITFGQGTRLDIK | No
BSPSMA/CD3-001 (bispecific antibody, IgG4, V domains shown, modified (chimeric) IgG4 Fc domain as in US20140243504A1; also called PSMA-VH-3465 x CD3-VH-A, CD3-VL-A) VH 1: QVQLVESGGGVVQPGRSLRLSCAASGFTFITYGMHWVRQAPGKGLEWVAIIYYDESNKYYADSVKGRFTISRDISKNTLYLQMNGLRAEDTAVYYCARAPRVAVEEDYSYYYGMDVWGQGTTVTVSS VH 2: EVQLVESGGGLVQPGRSLRLSCVASGFTFADFTMHWVRQAPGKGLEWVSGISWNSNSIDYADSVKGRFTISRDNAKKSLFLQMSSLRAEDTALYYCVKDRSGYSRFYYGMDVWGQGTTVTVSS VL: EIVMTQSPATLSVSPGERAILSCRASQNINSNLAWYQQKPGQAPRLLIYGASTRATGVPARFSGSGSGTEFTLTIRSLQSEDFAVYYCQQYYNWPITFGHGTRLEIK | Yes
BSPSMA/CD3-1900 (bispecific antibody, IgG4, V domains shown, modified (chimeric) IgG4 Fc domain; also called PSMA-VH-11810 x CD3-VH-G19) VH 1: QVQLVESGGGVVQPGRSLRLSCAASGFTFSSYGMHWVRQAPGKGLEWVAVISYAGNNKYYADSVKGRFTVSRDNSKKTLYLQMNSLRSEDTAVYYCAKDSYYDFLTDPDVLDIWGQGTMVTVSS VH 2: EVQLVESGGGLVQPGRSLRLSCAASGFTFDDYSMHWVRQAPGKGLEWVSGISWNSGSIGYADSVKGRFTISRDNAKNSLYLQMNSLRAEDTALYYCAKDGSGYGKFYHYGMDVWGQGTTVTVSS VL: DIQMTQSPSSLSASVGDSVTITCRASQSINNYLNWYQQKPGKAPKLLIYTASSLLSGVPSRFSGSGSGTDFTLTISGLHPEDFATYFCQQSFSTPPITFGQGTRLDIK | Yes
BSPSMA/CD3-1700 (bispecific antibody, IgG4, V domains shown, modified (chimeric) IgG4 Fc domain; also called PSMA-VH-11810 x CD3-VH-G17) VH 1: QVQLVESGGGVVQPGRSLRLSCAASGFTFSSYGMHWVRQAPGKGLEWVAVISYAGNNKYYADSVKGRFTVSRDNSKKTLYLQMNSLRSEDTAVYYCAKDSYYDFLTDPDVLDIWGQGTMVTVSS VH 2: EVQLVESGGGLVQPGRSLRLSCAASGFTFDDYSMHWVRQAPGKGLEWVSGISWNSGSKGYADSVKGRFTISRDNAKNSLYLQMNSLRAEDTALYYCAKYGSGYGKFYYYGMDVWGQGTTVTVSS VL: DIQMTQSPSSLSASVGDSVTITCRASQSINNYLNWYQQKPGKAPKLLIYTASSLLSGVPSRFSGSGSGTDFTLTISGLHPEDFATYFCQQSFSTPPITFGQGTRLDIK | No

Hey, just so you know, these numbers are from patent US20190127480A1.
